- experimental-target: Lycopersicon esculentum IspE (LeIspE) (Solanum lycopersicum, UniProt P93841)
- Sequence (P93841 89-401): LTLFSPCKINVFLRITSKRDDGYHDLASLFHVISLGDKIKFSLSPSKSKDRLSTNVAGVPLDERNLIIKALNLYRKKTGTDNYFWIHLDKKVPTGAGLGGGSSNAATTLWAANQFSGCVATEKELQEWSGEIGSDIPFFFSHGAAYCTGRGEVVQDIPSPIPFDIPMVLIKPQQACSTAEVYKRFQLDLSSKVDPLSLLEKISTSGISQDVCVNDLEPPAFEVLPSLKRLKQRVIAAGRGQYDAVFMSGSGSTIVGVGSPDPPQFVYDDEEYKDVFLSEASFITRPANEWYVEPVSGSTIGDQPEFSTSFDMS
- assay-method-text: Thermal shift assay against LeIspE
- Format: binding
readout-label: LeIspE melting point change (°C)
Numeric answer only, unit °C assumed.

Worked examples, 4 compounds total:
1) c1ccc(-c2ccc(-c3nnc(-c4cc5ccccc5[nH]4)o3)cc2)cc1 [HGN-288] | −1.50
2) Clc1ccc(-c2nnc(-c3cc4ccccc4[nH]3)o2)cc1 [HGN-213] | −2.00
3) FC(F)(F)c1nnc(-c2cc3ccccc3[nH]2)o1 [HGN-211] | −0.75
4) c1ccc2[nH]c(-c3nnco3)cc2c1 [HGN-207, 2-(1H-indol-2-yl)-1,3,4-oxadiazole] | −1.25

LeIspE melting point change reported for this compound COc1ccc(-c2nnc(-c3cc4ccccc4[nH]3)o2)cc1 [HGN-223] : −0.25

LeIspE melting point change reported for this compound c1ccc(-c2cccc(-c3nnc(-c4cc5ccccc5[nH]4)o3)c2)cc1 [HGN-287] : −0.25

LeIspE melting point change reported for this compound CC(C)c1nnc(-c2cc3ccccc3[nH]2)o1 [HGN-240] : −1.50

====

- experimental-target: AtIspF (Arabidopsis thaliana)
- assay-method-text: University of Hamburg photometric enzymatic inhibition assay AtIspF
- Type: biochemical
- settings: read-out: AtIspF IC50
pIC50: −log10 of the molar value.
readout-label: pIC50

Worked examples, 5 compounds total:
1) c1ccc2[nH]c(-c3nnc(C4CCCCC4)o3)cc2c1 | < 3.00
2) c1ccc(Cc2nnc(-c3cc4ccccc4[nH]3)o2)cc1 | < 3.00
3) c1ccc(-c2cccc(-c3nnc(-c4cc5ccccc5[nH]4)o3)c2)cc1 | < 3.00
4) Clc1ccc(-c2nnc(-c3nc4ccccc4s3)o2)cc1 | < 3.30
5) C(=C\c1nnc(-c2nc3ccccc3s2)o1)/c1ccccc1 | < 3.30

GET /values?item= Cc1ccc(-c2nnc(-c3nc4ccccc4s3)o2)cc1 &system= AtIspF (Arabidopsis thaliana) returns pIC50: < 3.30

GET /values?item= c1ccc(-c2ccc(-c3nnc(-c4cc5ccccc5[nH]4)o3)cc2)cc1 &system= AtIspF (Arabidopsis thaliana) returns pIC50: < 3.00

GET /values?item= COc1ccc(-c2nnc(-c3cc4ccccc4[nH]3)o2)cc1 &system= AtIspF (Arabidopsis thaliana) returns pIC50: < 3.00

GET /values?item= Oc1c(Br)cc(Br)cc1-c1cc2ccccc2[nH]1 &system= AtIspF (Arabidopsis thaliana) returns pIC50: 3.33

GET /values?item= FC(F)(F)c1nnc(-c2cc3ccccc3[nH]2)o1 &system= AtIspF (Arabidopsis thaliana) returns pIC50: < 3.00

GET /values?item= CC(C)c1nnc(-c2cc3ccccc3[nH]2)o1 &system= AtIspF (Arabidopsis thaliana) returns pIC50: < 3.00

====

Listed molecules paired with reported pIC50
- experimental-target: AtIspF (Arabidopsis thaliana, UniProt Q9CAK8)
- Sequence (Q9CAK8 53-231): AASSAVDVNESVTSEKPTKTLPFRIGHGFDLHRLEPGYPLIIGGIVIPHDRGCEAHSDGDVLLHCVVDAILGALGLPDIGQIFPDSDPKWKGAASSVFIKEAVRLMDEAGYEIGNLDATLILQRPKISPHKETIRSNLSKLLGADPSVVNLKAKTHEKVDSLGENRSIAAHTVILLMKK
- assay-method-text: University of Hamburg photometric enzymatic inhibition assay AtIspF
- Format: biochemical
- Excerpt: Compounds were subjected to a photometric enzymatic assay to test for inhibition of the plant enzymes Arabidopsis thaliana IspD and IspF, and IspE from Lycopersicon esculentum. […]
pIC50: −log10 of the molar value.

Worked examples, 3 molecules total:
1) c1ccc2[nH]c(-c3nnc(C4CCC4)o3)cc2c1 | < 3.00
2) COCc1nnc(-c2cc3ccccc3[nH]2)o1 | < 3.00
3) c1ccc(-c2nnc(-c3cc4ccccc4[nH]3)o2)cc1 | < 3.00

Next item in the queue.
GET /values?item= O=[N+]([O-])c1cc(-c2nnc(-c3nc4ccccc4s3)o2)cc([N+](=O)[O-])c1 &system= AtIspF (Arabidopsis thaliana, UniProt Q9CAK8) returns pIC50: < 3.30

====

Listed molecules paired with reported Germination
- Test system: lettuce seeds
- assay-method-text: Lettuce leaf assay
- Assay type: in vivo
- settings: 0.5 mM; ranking 0-5
In your answer, state the number alone without any accompanying words.

1) Cc1nnc(-c2cc3ccccc3[nH]2)o1 [HGN-209] | 1
2) COc1ccc(-c2nnc(-c3cc4ccccc4[nH]3)o2)cc1 [HGN-223] | 1
3) Cc1ccc(-c2nnc(-c3cc4ccccc4[nH]3)o2)cc1 [HGN-242] | 2
4) CC(C)c1nnc(-c2cc3ccccc3[nH]2)o1 [HGN-240] | 1
5) FC(F)(F)c1nnc(-c2cc3ccccc3[nH]2)o1 [HGN-211] | 1
6) CC(C)(C)c1nnc(-c2cc3ccccc3[nH]2)o1 [HGN-239] | 0
7) FC(F)(F)c1ccc(-c2nnc(-c3cc4ccccc4[nH]3)o2)cc1 [HGN-214] | 1
8) c1ccc2[nH]c(-c3nnco3)cc2c1 [HGN-207, 2-(1H-indol-2-yl)-1,3,4-oxadiazole] | 2
9) c1ccc2[nH]c(-c3nnc(C4CCCC4)o3)cc2c1 [HGN-252] | 1

Next item in the queue.
Germination reported for this molecule CCc1nnc(-c2cc3ccccc3[nH]2)o1 [HGN-250] : 1

====

- experimental-target: AtIspF (Arabidopsis thaliana, UniProt Q9CAK8)
- assay-method-text: University of Hamburg photometric enzymatic inhibition assay AtIspF
- Format: biochemical
- settings: read-out: AtIspF IC50
- Description: Compounds were subjected to a photometric enzymatic assay to test for inhibition of the plant enzymes Arabidopsis thaliana IspD and IspF, and IspE from Lycopersicon esculentum. […]
readout-label: IC50

1. c1ccc(CCc2nnc(-c3cc4ccccc4[nH]3)o2)cc1 | > 1000 µM
2. Clc1ccc(-c2nnc(-c3nc4ccccc4[nH]3)o2)cc1 | 484 µM
3. Clc1cccc(-c2nnc(-c3cc4ccccc4[nH]3)o2)c1 | > 1000 µM
4. FC(F)(F)c1ccc(-c2nnc(-c3nc4ccccc4s3)o2)cc1 | > 500 µM
5. CCc1nnc(-c2cc3ccccc3[nH]2)o1 | > 1000 µM
6. Clc1ccc(-c2nnc(-c3cc4ccccc4[nH]3)o2)cc1 | > 1000 µM
7. Clc1ccc(OCc2nnc(-c3nc4ccccc4s3)o2)c(Cl)c1 | 291 µM
8. c1ccc2[nH]c(-c3nnc(C4CCCC4)o3)cc2c1 | > 1000 µM
9. c1ccc2[nH]c(-c3nnco3)cc2c1 | > 1000 µM

Next item in the queue.
GET /values?item= CC(C)(C)c1nnc(-c2cc3ccccc3[nH]2)o1 &system= AtIspF (Arabidopsis thaliana, UniProt Q9CAK8) returns IC50: > 1000 µM

====

Listed compounds paired with reported pIC50
- experimental-target: UniProt P69834
- Sequence (P69834 62-302): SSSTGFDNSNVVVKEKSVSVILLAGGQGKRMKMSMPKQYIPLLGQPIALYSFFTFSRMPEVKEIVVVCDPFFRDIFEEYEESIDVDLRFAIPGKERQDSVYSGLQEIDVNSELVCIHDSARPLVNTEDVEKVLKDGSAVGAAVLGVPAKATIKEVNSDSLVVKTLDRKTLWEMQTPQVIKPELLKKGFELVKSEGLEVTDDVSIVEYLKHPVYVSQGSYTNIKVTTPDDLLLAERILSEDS
- assay-method-text: University of Hamburg photometric enzymatic inhibition assay AtIspD
- Format: biochemical
pIC50: −log10 of the molar value.

Worked examples, 3 compounds total:
1) c1ccc(-c2nnc(-c3cc4ccccc4[nH]3)o2)cc1 | 3.47
2) c1ccc2[nH]c(-c3nnc(C4CCC4)o3)cc2c1 | < 3.00
3) COCc1nnc(-c2cc3ccccc3[nH]2)o1 | < 3.00

pIC50 reported for this compound O=[N+]([O-])c1cc(-c2nnc(-c3nc4ccccc4s3)o2)cc([N+](=O)[O-])c1 : < 3.30

====

- experimental-target: Lycopersicon esculentum IspE (LeIspE) (Solanum lycopersicum, UniProt P93841)
- assay-method-text: Thermal shift assay against LeIspE
- Type: binding
readout-label: LeIspE melting temp (°C)
Numeric answer only, unit °C assumed.

1. Clc1ccc(-c2nnc(-c3nc4ccccc4s3)o2)cc1 [HGN-339] | 47.50
2. Oc1c(Br)cc(Br)cc1-c1cc2ccccc2[nH]1 [HGN-340, 2,4-dibromo-6-(1H-indol-2-yl)phenol] | 50.00
3. COc1ccc(-c2nnc(-c3nc4ccccc4s3)o2)cc1 [HGN-336] | 48.25
4. CC(C)(C)c1nnc(-c2cc3ccccc3[nH]2)o1 [HGN-239] | 47.00
5. c1ccc(CCc2nnc(-c3cc4ccccc4[nH]3)o2)cc1 [HGN-215] | 47.50

LeIspE melting temp reported for this compound CC(C)c1nnc(-c2cc3ccccc3[nH]2)o1 [HGN-240] : 48.00

LeIspE melting temp reported for this compound Clc1ccc(-c2nnc(-c3cc4ccccc4[nH]3)o2)cc1 [HGN-213] : 47.50

====

- experimental-target: LeIspE (Solanum lycopersicum)
- assay-method-text: University of Hamburg photometric enzymatic inhibition assay LeIspE
- Assay type: biochemical, Lycopersicon esculentum
readout-label: IC50

Worked examples, 3 compounds total:
1. COCc1nnc(-c2cc3ccccc3[nH]2)o1 | > 1000 µM
2. c1ccc2[nH]c(-c3nnc(C4CCC4)o3)cc2c1 | > 1000 µM
3. c1ccc(-c2nnc(-c3cc4ccccc4[nH]3)o2)cc1 | 165 µM

IC50 reported for this compound O=[N+]([O-])c1cc(-c2nnc(-c3nc4ccccc4s3)o2)cc([N+](=O)[O-])c1 : > 500 µM

Values from patent US11026426B2
